I'd be grateful if you could share measured growth for these entries.
tested on: MOLT-4 leukemia; assay: NCI-60 one-dose screen, 48 h (100 = growth as untreated, 0 = no growth, -100 = all killed); details: 10 µM
The panel holds about 83,000 compounds, 20% with a hit somewhere; the sample as a whole holds those more often.
Numbers only, in %.

Sample answers from the record:
S=C(SSC(=S)N(c1ccccc1)c1ccccc1)N(c1ccccc1)c1ccccc1	93.9
C=CCn1c(SCC(=O)Nc2ccc(C(=O)/C=C/c3ccc(OC)cc3)cc2)nnc1-c1ccc(OC)c(OC)c1	49.7
COC(=O)C1OC1c1cc([N+](=O)[O-])ccc1OC (stereo unspecified)	83.6
CN(C)c1ccc(/C=N/NC(=O)c2ccccc2Nc2cccc(C(F)(F)F)c2)cc1	76.7
O=C(Cn1cc(CO)nn1)Nc1nc2ccccc2s1	104
COc1ccc(/C=C/c2nnc(/C=C/c3ccc(OC)c(OC)c3)o2)cc1OC	20.3

Hi there! I need growth for each item below, if you can.
1. Oc1ccc(-c2[nH]c3ccccc3c2-c2nc3ccccc3o2)cc1
2. COc1ccc(/C(C#N)=C/c2ccccc2OC)cc1
3. COc1cc2cc(Oc3ccc(NC(=O)Nc4ccc(C(F)(F)F)cc4)cc3)c(C)nc2cc1OC

Result ::
[58.9, 21.3, 61.9]

For every record below, what is its growth?
1. COc1cc(-c2nn(-c3cccc(NC(=O)NCCNC(=O)c4cccc(C(F)(F)F)c4)c3)cc2-c2ccncc2)ccc1Cl
2. COC1OC(COS(=O)OC)C(O)C(O)C1OS(=O)OC (stereo unspecified)
3. CCOc1ccccc1/C=N\N=C(\N)N/N=C/c1ccccc1OCC
4. Nc1ccc(CC[C@H]2CCC/C=C/[C@@H]3C[C@H](O)C[C@H]3[C@H](O)/C=C/C(=O)O2)cc1
5. O=C(CSc1nccc(Nc2cccc3ccccc23)n1)c1ccc(Cl)cc1

Result ::
1: 27.3; 2: 92.1; 3: 26.5; 4: -18.8; 5: 88.1
